Biological target: MAO (substrate 5-HT) (Rattus norvegicus, UniProt P21396)
Sequence (P21396 1-526): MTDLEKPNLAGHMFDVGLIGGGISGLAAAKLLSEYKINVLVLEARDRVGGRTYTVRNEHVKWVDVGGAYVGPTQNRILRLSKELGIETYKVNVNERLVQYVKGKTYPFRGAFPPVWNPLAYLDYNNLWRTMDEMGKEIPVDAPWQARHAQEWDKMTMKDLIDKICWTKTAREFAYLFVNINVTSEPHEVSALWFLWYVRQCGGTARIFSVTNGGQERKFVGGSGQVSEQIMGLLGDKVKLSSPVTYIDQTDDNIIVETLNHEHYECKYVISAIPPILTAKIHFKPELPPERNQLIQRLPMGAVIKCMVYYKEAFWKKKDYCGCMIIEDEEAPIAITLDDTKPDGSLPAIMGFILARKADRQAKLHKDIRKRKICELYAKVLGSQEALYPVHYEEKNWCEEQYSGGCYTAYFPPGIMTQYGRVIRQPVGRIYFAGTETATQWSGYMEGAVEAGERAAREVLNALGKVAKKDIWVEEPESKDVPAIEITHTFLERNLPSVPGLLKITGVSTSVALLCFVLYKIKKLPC
READOUT_KIND: IC50 (nM)

a. NCCNC(=O)c1ncsc1-c1cc(Cl)cc(Cl)c1
b. NCCNC(=O)c1ncsc1-c1ccc(F)cc1
Higher IC50: a or b ? Kindly give the label for the entry you pick.
b
(b: 60 nM, a: 7 nM)

---

target: MAO (substrate PEA) (Rattus norvegicus, UniProt P19643)
Sequence (P19643 whole entry): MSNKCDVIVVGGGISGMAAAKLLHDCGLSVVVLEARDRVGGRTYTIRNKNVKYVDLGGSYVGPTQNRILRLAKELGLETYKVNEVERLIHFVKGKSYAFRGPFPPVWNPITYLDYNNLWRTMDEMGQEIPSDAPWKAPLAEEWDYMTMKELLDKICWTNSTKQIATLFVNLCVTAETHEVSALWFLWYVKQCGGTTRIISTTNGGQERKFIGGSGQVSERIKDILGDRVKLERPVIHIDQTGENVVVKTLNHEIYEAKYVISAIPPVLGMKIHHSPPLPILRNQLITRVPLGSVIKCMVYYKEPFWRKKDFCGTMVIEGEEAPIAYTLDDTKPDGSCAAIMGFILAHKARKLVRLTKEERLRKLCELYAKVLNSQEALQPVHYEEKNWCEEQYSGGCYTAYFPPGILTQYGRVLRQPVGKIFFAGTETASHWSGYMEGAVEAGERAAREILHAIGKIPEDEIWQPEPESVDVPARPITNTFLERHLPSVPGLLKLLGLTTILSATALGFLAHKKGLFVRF
pIC50: −log10 of the molar value.
READOUT_KIND: pIC50

A. NCCNC(=O)c1ncsc1-c1ccc(F)cc1F
B. NCCNC(=O)c1ncsc1-c1cc(Cl)cc(Cl)c1
C. NCCNC(=O)c1ncoc1-c1ccco1
Sort key: pIC50. Order: high to low. Scope: items listed above. Dear reader, please state the labels in the requested order.
B, C, A

Values were extracted from patent US5011849A.
